Test system: liver
EXPERIMENT_SUMMARY: In vivo Fluc activity of FlucmRNA-loaded LNP by in vivo imaging, liver
CONDITION_LABEL: Balb/c mice, FlucmRNA-loaded LNP i.v. 0.1 mg mRNA/kg, 6 hours
The reader will find reported Fluc Activity in liver values listed item by item below.
Express your answer in Avg Radiance [p/s/cm2/sr], writing the number without its unit.

Q: Request: Fluc Activity in liver, test system liver, entry CCCCCCCCCC(CCCCCCCCC)C(=O)OCCCCCCC(O)(CCCCCCOC(=O)C(CCCCCCCCC)CCCCCCCCC)CCCCN(CCC)CCC
Result: 6.86E+07

Q: Request: Fluc Activity in liver, test system liver, entry CCCCCCCCCCC(CCCCCCCCCC)C(=O)OCCCCCCC(O)(CCCCCCOC(=O)C(CCCCCCCCCC)CCCCCCCCCC)CCCCN(CCC)CCC
Result: 3.09E+07

Q: Request: Fluc Activity in liver, test system liver, entry CCCCCC(CCCC)C(=O)OCCCCCCC(O)(CCCCCCOC(=O)C(CCCC)CCCCC)CCCCN(CCC)CCC (stereo not shown)
Result: 5.05E+06

Q: Request: Fluc Activity in liver, test system liver, entry CCCCCCCCCC(CCCCCCC)C(=O)OCCCCCCC(O)(CCCCCCOC(=O)C(CCCCCCC)CCCCCCCCC)CCCCN(CCC)CCC (stereo not shown)
Result: 1.23E+08

Q: Request: Fluc Activity in liver, test system liver, entry CCCCCC(CCC)C(=O)OCCCCCCC(O)(CCCCCCOC(=O)C(CCC)CCCCC)CCCCN(CCC)CCC (stereo not shown)
Result: 3.43E+05

Q: Request: Fluc Activity in liver, test system liver, entry CCCCCCC(CCCCCC)C(=O)OCCCCCCC(O)(CCCCCCOC(=O)C(CCCCCC)CCCCCC)CCCCOC(=O)C1CCN(C)CC1 [CL15F 8-6]
Result: 1.92E+06

Q: Request: Fluc Activity in liver, test system liver, entry CCCCCCCCCCC(CCCCCC)C(=O)OCCCCCCC(O)(CCCCCCOC(=O)C(CCCCCC)CCCCCCCCCC)CCCCN(CCC)CCC (stereo not shown)
Result: 5.86E+07
